# Tested on: A-549, PC-3, and SKOV-3
# Assay Summary: MTT assay, statements over the cancer cell lines together
# Type: cell-based, human
# Condition Notes: MTT assay; A-549, PC-3 and SKOV-3 together, summary of Table 3; read-out: IC50 stated over the cancer cell lines together
Quantity Measured: IC50

> print(dat)
                                   molecule  quantity.measured  data.value
1  C=C(C)C1CC[C@]2(C)C(C[C@H](Br)[C@]34OC(=O)[C@@]5(CCC(C)(C)CC53)CC[C@]42C)[C@@]1(C)CCC#N (some centres unmarked)               IC50     < 10 µM

What does the data say about its IC50? Entry: CC1(C)CC[C@@]23CC[C@]4(C)[C@@](OC2=O)(C3C1)[C@@H](Br)CC1[C@@]2(C)CCC(=O)C(C)(C)C2CC[C@]14C (some centres unmarked)
12 to 15 µM

* * *

# Test system: A-549, PC-3, and SKOV-3
# Assay Summary: MTT assay, statements over the cancer cell lines together
# Assay type: cell-based, human
# Condition Notes: IC50 of HDFs / IC50 of cell line; text summary of Table 4
Quantity Measured: Selectivity Index stated over the tested cell lines together

As a guide, the following entries are already answered.
> print(dat)
                                   compound             assay.system  data.value
1  CC1(C)CC[C@@]23CC[C@]4(C)[C@@](OC2=O)(C3C1)[C@@H](Br)CC1[C@@]2(C)CCC(=O)C(C)(C)C2CC[C@]14C (some centres unmarked)  A-549, PC-3, and SKOV-3   exceeds 2
2  CC1(C)CC[C@@]23CC[C@]4(C)[C@@](OC2=O)(C3C1)[C@@H](Br)CC1[C@@]2(C)CC[C@H](O)C(C)(C)C2CC[C@]14C (some centres unmarked)  A-549, PC-3, and SKOV-3          ~2
3  CC(=O)O[C@H]1CC[C@@]2(C)C(CC[C@]3(C)C2C[C@H](O)[C@]24OC(=O)[C@@]5(CCC(C)(C)CC52)CC[C@]43C)C1(C)C (some centres unmarked)  A-549, PC-3, and SKOV-3   exceeds 2
4  CC(=O)OC1CCC2(C)C(CCC3(C)C2CC(=NO)C24OC(=O)C5(CCC(C)(C)CC52)CCC34C)C1(C)C (centres unmarked)  A-549, PC-3, and SKOV-3   exceeds 2

Then there is this compound:
Please look up its Selectivity Index stated over the tested cell lines together: CC(=O)O[C@H]1CC[C@@]2(C)C(CC[C@]3(C)C2CC(=O)[C@]24OC(=O)[C@@]5(CCC(C)(C)CC52)CC[C@@]34C)C1(C)C (some centres unmarked)
~2

* * *

# System: SKOV-3 (human ovarian carcinoma)
# Assay Summary: MTT assay, SKOV-3 cells
# Format: cell-based
# Condition Notes: MTT assay, SKOV-3 cells, value (standard deviation); read-out: IC50 [μM] (±s) SKOV-3
Quantity Measured: IC50 (µM)
Express it in µM; write the number only.

Record request: IC50 value, item CC(=O)O[C@H]1CC[C@@]2(C)C(CC[C@]3(C)C2C[C@H](O)[C@]24OC(=O)[C@@]5(CCC(C)(C)CC52)CC[C@]43C)C1(C)C (stereo partly shown)
2.96

* * *

Reported values of Apoptotic Index (AI) PC-3 for individual entries
# Tested on: PC-3 (human prostate carcinoma)
# Assay Summary: Cell Death Detection ELISA Plus, PC-3
# Type: cell-based
# Condition Notes: DNA fragmentation ELISA, sample vs negative control; tested at 0.1, 1.0 and 10.0 µg/mL, concentration of the value not stated

# annotated cases, reported Apoptotic Index (AI) PC-3 shown
> print(dat)
                                   compound          quantity.measured   data.value
1  CC1(C)CC[C@@]23CC[C@]4(C)[C@@](OC2=O)(C3C1)[C@@H](Br)CC1[C@@]2(C)CCC(=O)C(C)(C)C2CC[C@]14C (stereo partly shown)  Apoptotic Index (AI) PC-3  5.82 (0.04)
2  CC(=O)O[C@H]1CC[C@@]2(C)C(CC[C@]3(C)C2C[C@H](O)[C@]24OC(=O)[C@@]5(CCC(C)(C)CC52)CC[C@]43C)C1(C)C (stereo partly shown)  Apoptotic Index (AI) PC-3  4.76 (0.02)
3  CC(=O)OC1CCC2(C)C(CCC3(C)C2CC(=NO)C24OC(=O)C5(CCC(C)(C)CC52)CCC34C)C1(C)C (stereo not shown)  Apoptotic Index (AI) PC-3  7.28 (0.02)

Field: next compound
So what does the record say about Apoptotic Index (AI) PC-3 for C=C(C)C1CC[C@]2(C)C(C[C@H](Br)[C@]34OC(=O)[C@@]5(CCC(C)(C)CC53)CC[C@]42C)[C@@]1(C)CCC#N (stereo partly shown) ?
5.43 (0.05)
